molecular target: HLA-B*07 (Homo sapiens); assay: MHC binding assay (UV-ligand exchange, ELISA of stabilized MHC complexes); conditions: peptide exchange yield on HLA-B*07, UV-ligand exchange
measure-name: Peptide exchange

Consider the reported Peptide exchange for these substances:
Query block: I'm curious: which Peptide exchange was measured for 322 (RAVPVGSGL; listed as Homo sapiens) [compound 322] tested on HLA-B*07 (Homo sapiens)?
Result block: +++ (>50 = +++)

Query block: Repeat for the following substance: 288 (LHAMNSLSAM; listed as Homo sapiens) [compound 288]
Result block: +++ (>50 = +++)

Query block: Now consider 131 (MPFRNIRSIL; listed as Homo sapiens) [compound 131] and answer again.
Result block: +++ (>50 = +++)

Query block: Repeat with 319 (RPLDTFRVL; listed as Homo sapiens) [compound 319]
Result block: ++++ (>75% = ++++)

Query block: Continue with 74 (VPVSHPVL; listed as Homo sapiens) [compound 74]
Result block: ++++ (>75% = ++++)

Query block: Lookup 1 (RPRSLQCVSL; listed as Homo sapiens) [compound 1]
Result block: ++++ (>75% = ++++)

Could you tell me Peptide exchange for each of these substances? They are listed below.
1. 490 (APRGPAQGEAA; listed as Homo sapiens) [compound 490]
2. 479 (APHAGGALL; listed as Homo sapiens) [compound 479]

Result block:
1: ++++ (>75% = ++++); 2: ++++ (>75% = ++++)

List reported Peptide exchange for each of these substances:
1. 278 (LIAARGSLVL; listed as Homo sapiens) [compound 278]
2. 149 (SPSSVFTSK; listed as Homo sapiens) [compound 149]
3. 91 (FPRLVGPDFF; listed as Homo sapiens) [compound 91]

Result block:
1: +++ (>50 = +++); 2: +++ (>50 = +++); 3: ++++ (>75% = ++++)

For each entry beneath this line, provide reported Peptide exchange.
1. 282 (AVRLPTPNL; listed as Homo sapiens) [compound 282]
2. 499 (QPVLPSPAC; listed as Homo sapiens) [compound 499]
3. 230 (DVIDDIISL; listed as Homo sapiens) [compound 230]
4. 134 (VAAAARLTL; listed as Homo sapiens) [compound 134]
5. 77 (QPRLVPGETL; listed as Homo sapiens) [compound 77]

Result block:
1. ++++ (>75% = ++++)
2. ++++ (>75% = ++++)
3. ++++ (>75% = ++++)
4. +++ (>50 = +++)
5. ++++ (>75% = ++++)

Could I get Peptide exchange for every one of these entries?
1. 220 (RPAPGPAPFV; listed as Homo sapiens) [compound 220]
2. 239 (VLPRAGGAFLM; listed as Homo sapiens) [compound 239]
3. 194 (HPNKIKASL; listed as Homo sapiens) [compound 194]
4. 245 (GPVPSPLAL; listed as Homo sapiens) [compound 245]
5. 112 (YPSPLNKHSF; listed as Homo sapiens) [compound 112]

Result block:
1: +++ (>50 = +++); 2: +++ (>50 = +++); 3: +++ (>50 = +++); 4: ++++ (>75% = ++++); 5: +++ (>50 = +++)

Need Peptide exchange for each of these substances.
1. 35 (APLPPPRAL; listed as Homo sapiens) [compound 35]
2. 15 (KPGFNISIL; listed as Homo sapiens) [compound 15]

Result block:
1. +++ (>50 = +++)
2. ++++ (>75% = ++++)

Hi team, please reply with Peptide exchange for each item in this list.
1. 307 (RPHQKGWLSI; listed as Homo sapiens) [compound 307]
2. 258 (SVIGPNSRL; listed as Homo sapiens) [compound 258]
3. 6 (LPLNSSTSL; listed as Homo sapiens) [compound 6]
4. 207 (VPSDITTAF; listed as Homo sapiens) [compound 207]

Result block:
1: +++ (>50 = +++); 2: ++ (>20% = ++); 3: ++++ (>75% = ++++); 4: +++ (>50 = +++)

Batch of 7 substances: report Peptide exchange for each.
1. 367 (APQVHIFSL; listed as Homo sapiens) [compound 367]
2. 340 (APEPRAALL; listed as Homo sapiens) [compound 340]
3. 158 (SVPVATVEL; listed as Homo sapiens) [compound 158]
4. 47 (RPRQTGALM; listed as Homo sapiens) [compound 47]
5. 468 (LPSLHVLVL; listed as Homo sapiens) [compound 468]
6. 296 (SPLLMQRTL; listed as Homo sapiens) [compound 296]
7. 197 (RPSGTAGAALLA; listed as Homo sapiens) [compound 197]

Result block:
++++ (>75% = ++++)
+++ (>50 = +++)
++ (>20% = ++)
++++ (>75% = ++++)
++++ (>75% = ++++)
++++ (>75% = ++++)
++ (>20% = ++)

State the recorded Peptide exchange for every item in the following list.
1. 448 (TVYGEPRKL; listed as Homo sapiens) [compound 448]
2. 237 (LPRAGGAF; listed as Homo sapiens) [compound 237]
3. 244 (VPAHLVAA; listed as Homo sapiens) [compound 244]

Result block:
["++ (>20% = ++)", "++++ (>75% = ++++)", "++ (>20% = ++)"]

Query block: Give Peptide exchange (HLA-B*07 (Homo sapiens)) of the following substance: 328 (LPLHRGDLVI; listed as Homo sapiens) [compound 328]
Result block: +++ (>50 = +++)
